- study.system: uPA (Homo sapiens, UniProt P00749)
- experiment.summary: FRET peptide cleavage efficiency with uPA
- Format: biochemical
- measurement.parameters: pH 7.5; t = 60 min (Table 7)
Square brackets hold non-standard residues; d marks the D form. Ends that are not written are not given here. Tyr(3-NO2) = N[C@@H](Cc1ccc(O)c([N+](=O)[O-])c1)C(=O)O; 2Abz = Nc1ccccc1C(=O)O
measured.endpoint: % cleavage uPA t = 60 min (%)

record_sequence="SSRGPYMLQG ([2Abz]SSRGPYMLQG[Tyr(3-NO2)]-NH2) [LNK022]" measured_number=0
record_sequence="RQRRSPLGLAG ([2Abz]RQRRSPLGLAG[Tyr(3-NO2)]-NH2) [LNK010]" measured_number=0
record_sequence="SGRVLRKAGPQPLVD ([2Abz]SGRVLRKAGPQPLVD[Tyr(3-NO2)]-NH2) [LNK003]" measured_number=0
record_sequence="SGRVANLVG (not fully specified (N-terminus, C-terminus)) [LNK017]" measured_number=7
record_sequence="SGRVLRKAGPANLVG ([2Abz]SGRVLRKAGPANLVG[Tyr(3-NO2)]-NH2) [LNK014]" measured_number=0
record_sequence="SGRVAGLVG ([2Abz]SGRVAGLVG[Tyr(3-NO2)]-NH2) [LNK016]" measured_number=4
record_sequence="SSRGRRGPYMLQG ([2Abz]SSRGRRGPYMLQG[Tyr(3-NO2)]-NH2) [LNK021]" measured_number=10

Entry source: patent US20240400614A1
